Target: USP7 CD + UBL 1-5 (Homo sapiens, UniProt Q93009)
Construct: USP7 CD +
Sequence (Q93009 208-1102 limits assumed): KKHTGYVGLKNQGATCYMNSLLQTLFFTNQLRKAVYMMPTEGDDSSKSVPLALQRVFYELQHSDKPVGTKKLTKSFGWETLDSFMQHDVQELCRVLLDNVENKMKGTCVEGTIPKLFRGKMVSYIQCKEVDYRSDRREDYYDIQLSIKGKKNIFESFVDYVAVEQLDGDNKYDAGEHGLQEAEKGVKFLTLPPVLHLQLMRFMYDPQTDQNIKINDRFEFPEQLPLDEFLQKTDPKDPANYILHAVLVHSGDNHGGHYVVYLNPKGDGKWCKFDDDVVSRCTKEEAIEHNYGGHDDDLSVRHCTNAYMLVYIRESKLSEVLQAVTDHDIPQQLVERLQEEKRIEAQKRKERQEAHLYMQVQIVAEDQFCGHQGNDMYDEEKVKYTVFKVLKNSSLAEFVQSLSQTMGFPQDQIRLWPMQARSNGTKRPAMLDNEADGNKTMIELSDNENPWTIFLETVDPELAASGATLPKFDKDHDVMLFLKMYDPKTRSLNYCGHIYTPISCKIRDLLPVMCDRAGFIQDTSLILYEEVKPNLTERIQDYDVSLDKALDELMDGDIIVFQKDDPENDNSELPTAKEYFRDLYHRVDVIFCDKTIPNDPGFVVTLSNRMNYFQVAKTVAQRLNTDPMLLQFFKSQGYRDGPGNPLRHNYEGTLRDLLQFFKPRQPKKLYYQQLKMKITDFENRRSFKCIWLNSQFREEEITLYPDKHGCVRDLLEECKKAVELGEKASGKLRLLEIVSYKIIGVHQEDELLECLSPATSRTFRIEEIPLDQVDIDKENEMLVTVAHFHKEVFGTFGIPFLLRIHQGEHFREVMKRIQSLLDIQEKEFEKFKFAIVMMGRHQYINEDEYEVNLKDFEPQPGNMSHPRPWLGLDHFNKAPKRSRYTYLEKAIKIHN
Assay: Surface plasmon resonance assay (SPR)
Type: binding
Conditions: steady-state KD; read-out: SPR USP7 CD + UBL 1-5 (KD_ss)
Method: The surface plasmon resonance experiments were performed using a Cytiva (formerly GE Healthcare) Biacore 8K equipped with a Series S Sensor Chip SA. The ligands were immobilized via a biotin-modified biotin acceptor peptide. […]
property: Kd

Example cases with answers are listed next.
Cc1cc(Cl)cc(-c2ccnc3cc(CN4C(=O)CCC4=O)sc23)c1CC1CCN(C(=O)CN)CC1 ... < 1 µM
CCc1c(-c2ccc(C(=O)NCCCNC(=O)CCCCC(=O)OC(C)(C)C)nc2)cnc(N)c1-c1ccc(O)cc1 ... 1 to 100 µM
C[C@H](CC(=O)N1CCC(O)(Cn2cnc3cc(Br)ccc3c2=O)CC1)c1ccccc1 ... 1 to 100 µM

Recall and state the measured Kd for `C[C@H](CC(=O)N1CCC(O)(Cn2cnc3cc(NC(=O)CCN4CCN(CCN=[N+]=[N-])CC4)ccc3c2=O)CC1)c1ccccc1` .
< 1 µM

Recall and state the measured Kd for `CN1CCCn2nc(C(=O)Nc3nc4ccc(NS(=O)(=O)c5cn6ccccc6n5)cc4s3)cc2C1` .
1 to 100 µM

Recall and state the measured Kd for `CCOC(=O)NCc1ccc(-c2ccc3n[nH]cc3c2)c(CC)c1-c1ccc(O)cc1` .
1 to 100 µM

Recall and state the measured Kd for `Cc1cc(Cl)cc(-c2ccnc3cc(CN4C(=O)CCC4=O)sc23)c1OC1CCN(C(=O)CCOCCOCCOCCNC(=O)OC(C)(C)C)CC1` .
1 to 100 µM

Recall and state the measured Kd for `Cc1cc(Cl)cc(-c2ccnc3cc(CN4C(=O)CCC4=O)sc23)c1OC1CCN(CCCNC(=O)CCCCCCCNC(=O)OC(C)(C)C)CC1` .
< 1 µM

====

Molecular target: USP7 CD + UBL 1-5 (Homo sapiens, UniProt Q93009)
Construct: USP7 CD +
Experiment: Surface plasmon resonance assay (SPR)
Type: binding
Conditions: steady-state KD; read-out: SPR USP7 CD + UBL 1-5 (KD_ss)
property: Kd

Example cases with answers are listed next.
C[C@H](CC(=O)N1CCC(O)(Cn2cnc3cc(Cl)ccc3c2=O)CC1)c1ccccc1 ... 1000 to 100000 nM
O=C(CCc1ccccc1)N1CCC(O)(Cn2cnc3cc(Cl)ccc3c2=O)CC1 ... 1000 to 100000 nM
Cc1cc(Cl)cc(-c2ccnc3cc(CN4C(=O)CCC4=O)sc23)c1OC1CCNCC1 ... < 1000 nM
Cc1cc(Cl)cc(-c2ccnc3cc(CN4C(=O)CCC4=O)sc23)c1OC1CCN(C(=O)CN=[N+]=[N-])CC1 ... < 1000 nM
Cn1nc(C(=O)Nc2nc3ccc(NS(=O)(=O)c4cccs4)cc3s2)cc1CN1CCC(CO)CC1 ... 1000 to 100000 nM

Recall and state the measured Kd for `CN1CCCn2nc(C(=O)Nc3nc4ccc(NCc5c[nH]cn5)cc4s3)cc2C1` .
> 100000 nM

Recall and state the measured Kd for `CCc1c(-c2ccc(C(=O)NCCOCCOCCOCCNC(=O)OC(C)(C)C)nc2)ccc(N)c1C1=CC=C(O)CC1` .
1000 to 100000 nM

Recall and state the measured Kd for `CCc1c(-c2ccc3[nH]ncc3c2)cnc(N)c1-c1ccc(O)cc1` .
1000 to 100000 nM

====

Target: USP7 (Homo sapiens, UniProt Q93009)
Sequence (Q93009 whole entry): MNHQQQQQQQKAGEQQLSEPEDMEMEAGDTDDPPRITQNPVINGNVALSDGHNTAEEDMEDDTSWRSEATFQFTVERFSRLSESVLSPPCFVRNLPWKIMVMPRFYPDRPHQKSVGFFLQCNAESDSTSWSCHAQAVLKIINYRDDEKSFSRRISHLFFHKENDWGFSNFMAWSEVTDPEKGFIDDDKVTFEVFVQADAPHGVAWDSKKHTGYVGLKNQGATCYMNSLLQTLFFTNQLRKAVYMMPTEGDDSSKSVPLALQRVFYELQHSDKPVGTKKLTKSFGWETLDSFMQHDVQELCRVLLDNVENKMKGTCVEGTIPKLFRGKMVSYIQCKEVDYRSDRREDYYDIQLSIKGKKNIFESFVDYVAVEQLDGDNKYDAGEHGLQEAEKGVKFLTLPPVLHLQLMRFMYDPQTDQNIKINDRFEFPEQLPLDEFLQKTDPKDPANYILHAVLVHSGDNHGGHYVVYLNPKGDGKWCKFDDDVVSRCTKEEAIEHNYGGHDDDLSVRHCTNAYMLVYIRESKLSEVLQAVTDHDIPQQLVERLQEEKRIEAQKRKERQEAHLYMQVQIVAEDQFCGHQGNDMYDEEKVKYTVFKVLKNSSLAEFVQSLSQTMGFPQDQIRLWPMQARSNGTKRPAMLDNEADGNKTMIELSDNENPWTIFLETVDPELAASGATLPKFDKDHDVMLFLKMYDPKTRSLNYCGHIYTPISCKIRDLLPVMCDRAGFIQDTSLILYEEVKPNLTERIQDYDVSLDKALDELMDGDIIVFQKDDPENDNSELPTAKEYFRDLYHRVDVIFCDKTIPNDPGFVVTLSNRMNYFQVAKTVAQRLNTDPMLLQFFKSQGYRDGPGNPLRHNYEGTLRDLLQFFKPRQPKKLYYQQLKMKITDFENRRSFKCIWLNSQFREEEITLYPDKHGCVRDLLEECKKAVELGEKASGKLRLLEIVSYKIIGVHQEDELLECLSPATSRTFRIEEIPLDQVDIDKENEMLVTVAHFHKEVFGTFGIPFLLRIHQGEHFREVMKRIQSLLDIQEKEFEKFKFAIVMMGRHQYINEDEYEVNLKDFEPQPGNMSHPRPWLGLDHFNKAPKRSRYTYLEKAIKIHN
Assay: Ub-Rho cleavage assay
Format: biochemical
pIC50: −log10 of the molar value.
property: pIC50

# assay system USP7 (Homo sapiens, UniProt Q93009): give pIC50 of `O=C(C[C@@H](C(F)F)n1ccc(F)n1)N1CCC(O)(Cn2cnc3c(cnn3-c3ccc(F)cc3)c2=O)CC1`
> 6.00

====

Biological target: USP7 (Homo sapiens)
Assay: Ub-Rho cleavage assay
Type: biochemical
Conditions: Ub-Rho substrate, recombinant USP7; read-out: Ub (Rho) USP7.1 (IC50)
property: IC50

Example cases with answers are listed next.
CN1CCn2cc(C(=O)Nc3nc4ccc(NS(=O)(=O)c5cccs5)cc4s3)nc2C1 [U99] ... > 100 µM
Nc1ncc(-c2ccc(O)cc2)cc1-c1ccc(O)cc1 [U24] ... 1 to 100 µM
C[C@H](CC(=O)N1CCC(O)(Cn2cnc3c(-c4ccc(CNC(=O)CCCCCCNC(=O)OC(C)(C)C)cc4)n(C)nc3c2=O)CC1)c1ccccc1 [U132] ... < 1 µM
O=C(O)c1ccc(Nc2nc3ccc(NS(=O)(=O)c4cccs4)cc3s2)nn1 [U84] ... > 100 µM
CCc1c(-c2ccc(C(=O)NCCCNC(=O)CCCCCCCCNC(=O)OC(C)(C)C)nc2)cnc(N)c1-c1ccc(O)cc1 [U54] ... > 100 µM
CN1CCCn2nc(C(=O)Nc3nc4ccc(N[S+]([O-])c5cccs5)cc4s3)cc2C1 (centres unmarked) [U113] ... > 100 µM

Recall and state the measured IC50 for CS(=O)(=O)c1nccc(Nc2nc3ccc(NS(=O)(=O)c4cccs4)cc3s2)n1 [U80] .
> 100 µM

Recall and state the measured IC50 for Cn1nc2c(=O)n(CC3(O)CCN(C(=O)C[C@H](c4ccccc4)C(F)(F)F)CC3)cnc2c1Br [U38] .
1 to 100 µM

Recall and state the measured IC50 for CCc1c(-c2ccc(O)cc2)cnc(NCCN=[N+]=[N-])c1-c1ccc(C(=O)NC)nc1 [U71] .
1 to 100 µM

Recall and state the measured IC50 for Cc1cc(Cl)cc(-c2ccnc3cc(CN4C(=O)CCC4=O)sc23)c1OC1CCNCC1 [U16] .
< 1 µM

Recall and state the measured IC50 for C[C@H](CC(=O)N1CCC(O)(Cn2cnc3c(-c4ccc(CNC(=O)CCNC(=O)OC(C)(C)C)cc4)n(C)nc3c2=O)CC1)c1ccccc1 [U134] .
< 1 µM

====

Kd: recorded values
Target: USP7 CD + UBL 1-5 (Homo sapiens, UniProt Q93009)
Construct: USP7 CD +
Assay: Surface plasmon resonance assay (SPR)
Assay type: binding
Details: steady-state KD; read-out: SPR USP7 CD + UBL 1-5 (KD_ss)

CCc1c(-c2ccc(C(=O)NCCCNC(=O)CCCCCCCCNC(=O)OC(C)(C)C)nc2)cnc(N)c1-c1ccc(O)cc1 ... 1000 to 100000 nM
C[C@H](CC(=O)N1CCC(O)(Cn2cnc(NCCN3CCN(CCN=[N+]=[N-])CC3)cc2=O)CC1)c1ccccc1 ... < 1000 nM
CN1CCCn2nc(C(=O)Nc3nc4ccc(N[S+]([O-])c5cccs5)cc4s3)cc2C1 (stereo not shown) ... 1000 to 100000 nM

Please examine the following record next.
# assay system USP7 CD + UBL 1-5 (Homo sapiens, UniProt Q93009): give Kd of `CCc1c(-c2ccc3c(cnn3CCN)c2)cnc(CNC(=O)OC(C)(C)C)c1-c1ccc(O)cc1`
1000 to 100000 nM

====

Target: USP7 (Homo sapiens, UniProt Q93009)
Assay: Ub-Rho cleavage assay
Format: biochemical
Conditions: Ub-Rho substrate, recombinant USP7; read-out: Ub (Rho) USP7.1 (IC50)
pIC50: −log10 of the molar value.
property: pIC50

CCc1c(-c2ccc(C(=O)NC)nc2)ccc(NCCN=[N+]=[N-])c1-c1ccc(O)cc1 [U70] ... 4.00 to 6.00
CCc1c(-c2ccc(C(=O)NCCCNC(=O)OC(C)(C)C)nc2)cnc(N)c1-c1ccc(O)cc1 [U7] ... 4.00 to 6.00

# assay system USP7 (Homo sapiens, UniProt Q93009): give pIC50 of Cc1cc(Cl)cc(-c2ccnc3cc(CN4C(=O)CCC4=O)sc23)c1CC1CCN(C(=O)CN)CC1 [U22]
> 6.00

# assay system USP7 (Homo sapiens, UniProt Q93009): give pIC50 of CN1CCCn2nc(C(=O)Nc3nc4ccc(N(C5CCNC5)S(=O)(=O)c5cccs5)cc4s3)cc2C1 (centres unmarked) [U120]
< 4.00

# assay system USP7 (Homo sapiens, UniProt Q93009): give pIC50 of C[C@H](CC(=O)N1CCC(O)(Cn2cnc3cc(NC(=O)CCN4CCN(CCN=[N+]=[N-])CC4)ccc3c2=O)CC1)c1ccccc1 [U46]
> 6.00

# assay system USP7 (Homo sapiens, UniProt Q93009): give pIC50 of CN1CC2CN(C(=O)Nc3nc4ccc(NS(=O)(=O)c5cccs5)cc4s3)CC2C1 (centres unmarked) [U117]
< 4.00

# assay system USP7 (Homo sapiens, UniProt Q93009): give pIC50 of NCc1cc(Nc2nc3ccc(NS(=O)(=O)c4cn5c(n4)CCC5)cc3s2)ncn1 [U100]
< 4.00
